system: MCF7; assay: Inhibition of growth of MCF-7 breast cancer cells in culture; type: functional, cell-based; settings: Homo sapiens
measurementKind: pIC50
Scale: negative log10 of molar concentration, which is what pIC50 denotes.

INPUT: State, in one line, measured pIC50 of OCC1O[C@@H]2O[C@@H]3C(C[Te]c4ccc(O)cc4)O[C@H](O[C@@H]4C(CO)O[C@H](O[C@@H]5C(CO)O[C@H](O[C@@H]6C(CO)O[C@@H](O[C@@H]7C(CO)O[C@H](O[C@@H]8C(CO)O[C@H](O[C@H]1C(O)C2O)C(O)C8O)C(O)C7O)C(O)C6O)C(O)C5O)C(O)C4O)C(O)C3O (stereo partly specified)
OUTPUT: 5.80

INPUT: Give pIC50 for OCC1O[C@@H]2O[C@@H]3C(C[Se]c4ccccc4)O[C@H](O[C@@H]4C(CO)O[C@H](O[C@@H]5C(CO)O[C@H](O[C@@H]6C(CO)O[C@@H](O[C@@H]7C(CO)O[C@H](O[C@@H]8C(CO)O[C@H](O[C@H]1C(O)C2O)C(O)C8O)C(O)C7O)C(O)C6O)C(O)C5O)C(O)C4O)C(O)C3O (stereo partly specified)
OUTPUT: 4.99

INPUT: Write down pIC50 measured for item COc1ccc([Te]CC2O[C@@H]3O[C@@H]4C(CO)O[C@H](O[C@@H]5C(CO)O[C@H](O[C@@H]6C(CO)O[C@@H](O[C@@H]7C(CO)O[C@H](O[C@@H]8C(CO)O[C@H](O[C@@H]9C(CO)O[C@H](O[C@H]2C(O)C3O)C(O)C9O)C(O)C8O)C(O)C7O)C(O)C6O)C(O)C5O)C(O)C4O)cc1 (stereo partly specified)
OUTPUT: 5.34

INPUT: Return value of pIC50 for input CN(C)c1ccc([Te]CC2O[C@@H]3O[C@@H]4C(CO)O[C@H](O[C@@H]5C(CO)O[C@H](O[C@@H]6C(CO)O[C@@H](O[C@@H]7C(CO)O[C@H](O[C@@H]8C(CO)O[C@H](O[C@@H]9C(CO)O[C@H](O[C@H]2C(O)C3O)C(O)C9O)C(O)C8O)C(O)C7O)C(O)C6O)C(O)C5O)C(O)C4O)cc1 (stereo partly specified) , no commentary.
OUTPUT: 4.98

INPUT: For the compound OCC1O[C@@H]2O[C@@H]3C(C[Te]c4ccccc4)O[C@H](O[C@@H]4C(CO)O[C@H](O[C@@H]5C(CO)O[C@H](O[C@@H]6C(CO)O[C@@H](O[C@@H]7C(CO)O[C@H](O[C@@H]8C(CO)O[C@H](O[C@H]1C(O)C2O)C(O)C8O)C(O)C7O)C(O)C6O)C(O)C5O)C(O)C4O)C(O)C3O (stereo partly specified) , give its measured pIC50 value.
OUTPUT: 5.00

INPUT: State its pIC50: CCCC[Te]CC1O[C@@H]2O[C@@H]3C(CO)O[C@H](O[C@@H]4C(CO)O[C@H](O[C@@H]5C(CO)O[C@@H](O[C@@H]6C(CO)O[C@H](O[C@@H]7C(CO)O[C@H](O[C@@H]8C(CO)O[C@H](O[C@H]1C(O)C2O)C(O)C8O)C(O)C7O)C(O)C6O)C(O)C5O)C(O)C4O)C(O)C3O (stereo partly specified)
OUTPUT: 5.22
